Target: Transforming acidic coiled-coil-containing protein 3 (Homo sapiens)
Experiment: inhibitors of ARNT PAS-B binding to TACC3 – biochemical, AlphaScreen, single concentration, primary screen (AID 623870)
Conditions: AlphaScreen His-ARNT PAS-B/GST-TACC3 binding, luminescence; at 9.99 µM; TACC3 fragment carries E629A point mutation
Hit rate of the full screen: of about 390,000 compounds, about 2,600 (0.67%) were called active.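 How the source made its calls: active means mean inhibition of replicates at least 50% and at least half of replicates each reaching 50%; inconclusive means half or more replicates reach 50% but mean below 50%; inactive means the rest.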 This excerpt belongs to a sample that is enriched for actives.
# output must be one of yes = active, no = inactive

Solved entries (count: 6):
{"compound": "C[C@@H]1CN([C@H](C)CO)C(=O)c2cc(NS(=O)(=O)c3ccccc3)ccc2O[C@H]1CN(C)S(=O)(=O)c1cccs1", "classification": "no"}
{"compound": "CC[C@]1(O)C[C@@H]2CN(CCc3c([nH]c4ccccc34)[C@@](C(=O)OC)(c3cc4c(cc3OC)N(C)[C@H]3[C@@](O)(C(=O)OC)[C@H](OC(C)=O)[C@]5(CC)C=CCN6CC[C@]43[C@@H]65)C2)C1", "classification": "no"}
{"compound": "C[C@@H]1CN([C@@H](C)CO)C(=O)c2cccc(NS(=O)(=O)c3cn(C)cn3)c2O[C@H]1CN(C)Cc1ccc(Cl)c(Cl)c1", "classification": "no"}
{"compound": "CC[C@]1(O)CC2CN(CCc3c([nH]c4ccccc34)[C@@](C(=O)OC)(c3cc4c(cc3OC)N(C=O)[C@H]3[C@@](O)(C(=O)OC)[C@H](OC(C)=O)[C@]5(CC)C=CCN6CC[C@]43[C@@H]65)C2)C1 (some centres not stated)", "classification": "yes"}
{"compound": "CCC(=O)N[C@H]1CC[C@H](CCn2cc(-c3cccc(OC)c3)nn2)O[C@H]1CO", "classification": "no"}
{"compound": "CN1c2ccc(C=O)c3c(C=O)ccc(c23)N(C)C1(C)C", "classification": "yes"}

Prompt: Given C[C@H]1CN([C@@H](C)CO)C(=O)Cc2cc(NC(=O)Nc3cccc4ccccc34)ccc2O[C@@H]1CN(C)C , state the outcome it received in this test.
Completion: no
